Biological target: VEGFR-2 (Homo sapiens)
Construct: The kinase domain of the enzyme was purified to homogeneity from a baculovirus expression system; made in house
Sequence (P35968 834-1162 limits assumed, species assumed): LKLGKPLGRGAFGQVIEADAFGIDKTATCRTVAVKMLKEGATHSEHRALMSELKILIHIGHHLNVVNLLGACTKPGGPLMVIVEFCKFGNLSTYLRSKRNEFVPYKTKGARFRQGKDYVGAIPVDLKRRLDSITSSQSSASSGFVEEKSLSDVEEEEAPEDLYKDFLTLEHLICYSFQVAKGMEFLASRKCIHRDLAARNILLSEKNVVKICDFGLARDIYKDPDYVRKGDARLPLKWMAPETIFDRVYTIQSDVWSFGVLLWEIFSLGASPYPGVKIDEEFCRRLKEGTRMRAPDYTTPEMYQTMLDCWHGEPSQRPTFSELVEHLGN
Experiment: VEGFR-2 substrate phosphorylation assay
Type: biochemical
Settings: read-out: VEGFR2 kinase inhibition IC50
Would you mind telling me the reported IC50 of each entry?

Some solved entries appear below for comparison.
COMPOUND: CC(=O)N(C)c1ccc(N/C=C2\C(=O)Nc3ccc4ncsc4c32)cc1 [Example 58]
MEASURED_VALUE: 11 to 50 nM

COMPOUND: CCC1(c2ccc(N/C=C3\C(=O)Nc4ccc5ncccc5c43)cc2)CCC(=O)NC1=O (stereo not drawn) [Example 63]
MEASURED_VALUE: 1 to 10 nM

COMPOUND: O=C1Nc2ccc3ncccc3c2/C1=C/Nc1ccc(CCO)cc1 [Example 32]
MEASURED_VALUE: 11 to 50 nM

Parameter requested: IC50. Apply to each item below.
1. CCN(CC)CCS(=O)(=O)c1ccc(N/C=C2\C(=O)Nc3ccc4ncsc4c32)cc1 [Example 71]
2. CCC1(c2ccc(N/C=C3\C(=O)Nc4ccc5ncsc5c43)cc2)CCC(=O)NC1=O (stereo not drawn) [Example 48]
3. Cc1cc(=O)[nH]n1-c1ccc(N/C=C2\C(=O)Nc3ccc4ncsc4c32)cc1 [Example 55]
4. O=C1Nc2ccc3ncccc3c2/C1=C/Nc1ccc(N2CCOCC2)cc1 [Example 29]
5. Cc1cc(=O)[nH]n1-c1ccc(N/C=C2\C(=O)Nc3ccc4ncccc4c32)cc1 [Example 66]

Marked response:
1: 11 to 50 nM; 2: 1 to 10 nM; 3: 1 to 10 nM; 4: 11 to 50 nM; 5: 1 to 10 nM

The compound O=C1Nc2ccc3ncccc3c2/C1=C/Nc1ccc(Cc2ccncc2)cc1 [Example 30] showed IC50 equal to 11 to 50 nM

###

Target: VEGFR-2 (Homo sapiens)
Construct: The kinase domain of the enzyme was purified to homogeneity from a baculovirus expression system; made in house
Assay: VEGFR-2 substrate phosphorylation assay
Assay type: biochemical
Would you mind telling me the reported IC50 of each entry?

CHEMICAL_STRUCTURE: NC(=O)c1ccc(N/C=C2\C(=O)Nc3ccc4ncsc4c32)cc1
SUBJECT_OF_TEST: VEGFR-2 (Homo sapiens)
IC50: 0.011 to 0.05 µM

Kindly consider the entry below.
Value sought: IC50, system VEGFR-2 (Homo sapiens), item CCN(CC)CCS(=O)(=O)c1ccc(N/C=C2\C(=O)Nc3ccc4ncccc4c32)cc1 . Result: 0.001 to 0.01 µM
